PROCEDURE TEXT: Biodistribution in AR42J tumor-bearing mice
CONDITION INFO: female, CD-1 nude (athymic nude), mouse, liver, iv, total radioactivity, Biodistribution, i.v. ~5 MBq (~1 nmol), 5 h p.i., mean ± SD, n=3
OUTCOME MEASURE: tissue uptake at 5 h

tissue uptake at 5 h in this record for C[C@@H](O)[C@@H]1NC(=O)[C@H](CCCCN)NC(=O)[C@@H](Cc2c[nH]c3ccccc23)NC(=O)[C@H](Cc2cccc3ccccc23)NC(=O)[C@@H](NC(=O)[C@@H](Cc2ccccc2)NC(=O)CCC(C(=O)O)N2CCN(CC(=O)O)CCN(CC(=O)O)CC2)CSSC[C@@H](C(=O)N[C@H](CO)[C@@H](C)O)NC1=O (stereo partly shown) [^44Sc-NODAGA-NOC, metal not drawn] : 0.94 %ID/g
